# STUDY SYSTEM: QscR (Pseudomonas aeruginosa)
# Construct: expressed in transfected cells; host or cells: E. coli 5α (DH5α) with pJNQ and pPROBE-PPA1897
# Sequence (G3XD77 1-237): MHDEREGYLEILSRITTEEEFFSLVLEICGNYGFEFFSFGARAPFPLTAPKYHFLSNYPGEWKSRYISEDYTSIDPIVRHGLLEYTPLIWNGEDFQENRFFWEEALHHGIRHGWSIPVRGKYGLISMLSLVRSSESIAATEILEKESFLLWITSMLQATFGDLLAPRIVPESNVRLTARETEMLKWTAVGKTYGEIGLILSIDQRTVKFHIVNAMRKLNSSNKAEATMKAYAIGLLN
# EXPERIMENT DESCRIPTION: cell-based
# CONDITION SUMMARY: P. aeruginosa PAO-SC4 (pPROBE-PPA1897); read-out: EC50 QscR in native host
pEC50: −log10 of the molar value.
Let's look at some compounds and their measured pEC50.
ENDPOINT NAME: pEC50

• CCCCCCCCCCCCCC(=O)N[C@H]1CCOC1=O = < 4.00
• CCCCCCCCCC(O)CC(=O)N[C@H]1CCOC1=O (some centres unmarked) = 4.62
• CC(O)CC(=O)N[C@H]1CCOC1=O (some centres unmarked) = < 4.00
• CCCCCC(O)CC(=O)N[C@H]1CCOC1=O (stereo partly drawn) [3OHC8-HSL, N-3-hydroxyoctanoyl-L-homoserine lactone] = < 4.00
• CCCC(=O)N[C@H]1CCOC1=O = < 4.00

----------
# STUDY SYSTEM: LasR (Pseudomonas aeruginosa, UniProt P25084)
# Construct: expressed in transfected cells; host or cells: E. coli 5α (DH5α) with pJNL and pPROBE-PrsaL
# Sequence (P25084 whole entry): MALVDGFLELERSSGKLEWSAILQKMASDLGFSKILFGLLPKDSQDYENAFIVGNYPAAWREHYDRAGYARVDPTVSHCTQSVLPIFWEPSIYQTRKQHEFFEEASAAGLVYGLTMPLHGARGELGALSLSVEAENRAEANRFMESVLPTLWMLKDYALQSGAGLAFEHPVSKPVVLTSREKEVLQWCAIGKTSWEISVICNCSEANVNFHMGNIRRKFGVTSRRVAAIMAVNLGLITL
# EXPERIMENT DESCRIPTION: cell-based
# CONDITION SUMMARY: P. aeruginosa PAO-SC4 (pPROBE-PrsaL); mean ± SEM, n ≥ 3; read-out: EC50 LasR in native host
ENDPOINT NAME: EC50 (µM)

- CCCCCCCCCC(O)CC(=O)N[C@H]1CCOC1=O (stereo partly drawn): 48.4
- CCCCCCCCCCCCCC(=O)CC(=O)N[C@H]1CCOC1=O: 7.05
- CCCCCCCCCCCC(O)CC(=O)N[C@H]1CCOC1=O (stereo partly drawn): 2.66
- CCCCCC(=O)CC(=O)N[C@H]1CCOC1=O: 59.1
- CCCCCCCCCCCC(=O)CC(=O)N[C@H]1CCOC1=O: 2.35

----------
# STUDY SYSTEM: BtaR1 (Burkholderia thailandensis, UniProt Q2T543)
# Sequence (Q2T543 1-239): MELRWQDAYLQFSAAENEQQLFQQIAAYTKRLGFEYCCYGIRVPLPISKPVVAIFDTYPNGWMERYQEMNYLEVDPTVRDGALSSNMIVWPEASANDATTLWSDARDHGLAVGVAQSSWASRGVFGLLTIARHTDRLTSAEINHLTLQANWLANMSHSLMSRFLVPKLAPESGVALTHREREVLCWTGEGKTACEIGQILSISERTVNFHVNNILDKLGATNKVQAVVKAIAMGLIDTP
# EXPERIMENT DESCRIPTION: cell-based
# Set-up: species or system B. thailandensis
pEC50: −log10 of the molar value.
Let's look at some compounds and their measured pEC50.
ENDPOINT NAME: pEC50

- CCCCCCCC(O)CC(=O)N[C@H]1CCOC1=O (stereo partly drawn) [3OHC10-HSL]: 5.74
- CCCCCCCCCCCCCC(=O)CC(=O)N[C@H]1CCOC1=O [3OC16-HSL]: 5.86
- CCCCCCCCCCCC(=O)CC(=O)N[C@H]1CCOC1=O [3OC14-HSL]: 5.90
- CCCCCCCC(=O)CC(=O)N[C@H]1CCOC1=O [3OC10-HSL]: 5.55
- CCCCCCCCCCCCCC(=O)N[C@H]1CCOC1=O [C14-HSL]: 6.01
- CCCCCC(=O)CC(=O)N[C@H]1CCOC1=O [3OC8-HSL]: 5.96
- CCCCCCCCCCCC(O)CC(=O)N[C@H]1CCOC1=O (stereo partly drawn) [3OHC14-HSL]: 5.65

----------
# STUDY SYSTEM: BtaR2 (Burkholderia thailandensis)
# Sequence (Q2T5X2 1-234): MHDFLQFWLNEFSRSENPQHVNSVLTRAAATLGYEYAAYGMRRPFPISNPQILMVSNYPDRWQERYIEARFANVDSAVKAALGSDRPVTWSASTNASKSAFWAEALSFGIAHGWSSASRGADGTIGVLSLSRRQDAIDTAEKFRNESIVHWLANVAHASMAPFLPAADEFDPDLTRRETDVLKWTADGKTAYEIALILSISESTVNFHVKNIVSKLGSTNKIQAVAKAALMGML
# EXPERIMENT DESCRIPTION: cell-based
# Set-up: species or system B. thailandensis
pEC50: −log10 of the molar value.
ENDPOINT NAME: pEC50

* CCCCCCCCCCCCCCCC(=O)N[C@H]1CCOC1=O [C16-HSL] | < 4.00
* CCCCCCCC(=O)N[C@H]1CCOC1=O [C8-HSL] | 4.86
* CCCC(=O)N[C@H]1CCOC1=O [C4-HSL, N-butyryl-L-homoserine lactone] | < 4.00

----------
Let's look at some compounds and their measured EC50.
# STUDY SYSTEM: CviR (Chromobacterium violaceum, UniProt D3W065)
# Construct: Violacein was used as a measure of CviR activity in C. violaceum (CV026); endogenous in cells
# EXPERIMENT DESCRIPTION: cell-based
# CONDITION SUMMARY: C. violaceum CV026, violacein; read-out: EC50 CviR in native host
ENDPOINT NAME: EC50 (µM)

* CCCC(=O)N[C@H]1CCOC1=O [C4-HSL, N-butyryl-L-homoserine lactone] | 14.3
* CCCCCC(=O)CC(=O)N[C@H]1CCOC1=O [3OC8-HSL] | 5.47
* CCCC(=O)CC(=O)N[C@H]1CCOC1=O [3OC6-HSL] | 0.98
* CCCCCC(O)CC(=O)N[C@H]1CCOC1=O (stereo partly drawn) [3OHC8-HSL, N-3-hydroxyoctanoyl-L-homoserine lactone] | 21.2

----------
# STUDY SYSTEM: RhlR (Pseudomonas aeruginosa)
# Sequence (P54292 whole entry): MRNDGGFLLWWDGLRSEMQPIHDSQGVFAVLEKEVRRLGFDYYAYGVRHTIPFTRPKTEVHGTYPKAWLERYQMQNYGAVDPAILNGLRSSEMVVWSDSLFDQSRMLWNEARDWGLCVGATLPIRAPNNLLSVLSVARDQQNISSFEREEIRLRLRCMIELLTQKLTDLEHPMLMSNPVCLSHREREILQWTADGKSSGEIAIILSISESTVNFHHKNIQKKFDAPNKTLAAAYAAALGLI
# EXPERIMENT DESCRIPTION: cell-based
# Type: cell-based, P. aeruginosa
# CONDITION SUMMARY: receptor expressed in E. coli (DH5α), arabinose-induced
Let's look at some molecules and their measured EC50.
ENDPOINT NAME: EC50

• CCCCCCCCCCCC(O)CC(=O)N[C@H]1CCOC1=O (stereo partly drawn) = > 100 µM
• CCCC(O)CC(=O)N[C@H]1CCOC1=O (stereo partly drawn) = > 100 µM
• CCCCCC(=O)N[C@H]1CCOC1=O = 134 µM
• CCCCCCCC(O)CC(=O)N[C@H]1CCOC1=O (stereo partly drawn) = > 100 µM
• CCCCCCCCCCCC(=O)N[C@H]1CCOC1=O = > 100 µM
• CCCCCCCCCCCCCC(=O)CC(=O)N[C@H]1CCOC1=O = > 100 µM

----------
Let's look at some compounds and their measured EC50.
# STUDY SYSTEM: LuxR (Aliivibrio fischeri, UniProt P12746)
# Construct: endogenous in cells; host or cells: V. fischeri MJ215
# Sequence (P12746 whole entry): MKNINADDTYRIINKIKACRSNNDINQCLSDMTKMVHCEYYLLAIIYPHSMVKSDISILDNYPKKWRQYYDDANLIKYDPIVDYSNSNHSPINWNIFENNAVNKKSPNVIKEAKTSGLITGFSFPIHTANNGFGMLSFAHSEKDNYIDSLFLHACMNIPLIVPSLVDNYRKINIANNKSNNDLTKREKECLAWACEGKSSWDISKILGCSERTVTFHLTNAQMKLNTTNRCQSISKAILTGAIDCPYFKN
# EXPERIMENT DESCRIPTION: cell-based
# CONDITION SUMMARY: V. fischeri MJ215, luminescence; read-out: EC50 LuxR in native host
ENDPOINT NAME: EC50

• CCCCCCCCCCCC(O)CC(=O)N[C@H]1CCOC1=O (stereo partly drawn) [3OHC14-HSL] = > 100 µM
• CCCCCCCCCC(O)CC(=O)N[C@H]1CCOC1=O (stereo partly drawn) [3OHC12-HSL] = > 100 µM
• CCCC(=O)N[C@H]1CCOC1=O [C4-HSL, N-butyryl-L-homoserine lactone] = > 100 µM
• CCCCCCCCCCCC(=O)N[C@H]1CCOC1=O [C12-HSL] = > 100 µM
• CC(O)CC(=O)N[C@H]1CCOC1=O (stereo partly drawn) [3OHC4-HSL] = > 100 µM
• CCCCCC(=O)CC(=O)N[C@H]1CCOC1=O [3OC8-HSL] = 0.49 µM
• CCCCCCCC(=O)CC(=O)N[C@H]1CCOC1=O [3OC10-HSL] = 4 µM
• CCCCCCCCCC(=O)CC(=O)N[C@H]1CCOC1=O [3OC12-HSL, N-3-oxo-dodecanoyl-L-homoserine lactone] = 7.1 µM
• CCCCCCCCCC(=O)N[C@H]1CCOC1=O [C10-HSL, N-decanoyl-L-homoserine lactone] = 42 µM

----------
# STUDY SYSTEM: BtaR2 (Burkholderia thailandensis)
# EXPERIMENT DESCRIPTION: cell-based
# Set-up: species or system B. thailandensis
pEC50: −log10 of the molar value.
ENDPOINT NAME: pEC50

* CCCC(=O)N[C@H]1CCOC1=O [C4-HSL, N-butyryl-L-homoserine lactone] | < 4.00
* CCCCCC(=O)N[C@H]1CCOC1=O [C6-HSL] | < 4.00
* CCCCCCCCCC(O)CC(=O)N[C@H]1CCOC1=O (stereo partly drawn) [3OHC12-HSL] | 7.04
* CCCCCCCCCCCCCCCC(=O)N[C@H]1CCOC1=O [C16-HSL] | < 4.00
* CCCC(=O)CC(=O)N[C@H]1CCOC1=O [3OC6-HSL] | < 4.00
* CC(O)CC(=O)N[C@H]1CCOC1=O (stereo partly drawn) [3OHC4-HSL] | 4.60

----------
# STUDY SYSTEM: CviR (Chromobacterium violaceum, UniProt D3W065)
# Construct: Violacein was used as a measure of CviR activity in C. violaceum (CV026); endogenous in cells
# EXPERIMENT DESCRIPTION: cell-based
# CONDITION SUMMARY: C. violaceum CV026, violacein; read-out: EC50 CviR in native host
ENDPOINT NAME: EC50

- CCCCCCCCCCCCCC(=O)N[C@H]1CCOC1=O [C14-HSL]: > 100 µM
- CCCCCCCCCC(O)CC(=O)N[C@H]1CCOC1=O (stereo partly shown) [3OHC12-HSL]: > 100 µM
- CCCCCCCCCCCC(O)CC(=O)N[C@H]1CCOC1=O (stereo partly shown) [3OHC14-HSL]: > 100 µM
- CCCCCCCCCCCCCC(=O)CC(=O)N[C@H]1CCOC1=O [3OC16-HSL]: > 100 µM
- CCCCCCCCCC(=O)CC(=O)N[C@H]1CCOC1=O [3OC12-HSL, N-3-oxo-dodecanoyl-L-homoserine lactone]: > 100 µM
- CCCCCCCC(=O)N[C@H]1CCOC1=O [C8-HSL]: 1.66 µM
- CCCCCC(=O)N[C@H]1CCOC1=O [C6-HSL]: 0.0834 µM

Measured values drawn from paper PMC6401477 for this set.
